System: Madurella mycetomatis MM55
assay protocol: growth relative to untreated control; higher = less inhibition, active = 20 or less
run conditions: 100 µM
As shown below, each of these molecules has a reported growth value.
result type: growth

- CC(C)C(=O)OCC(=O)[C@@]12OC(C3CCCCC3)O[C@@H]1C[C@H]1[C@@H]3CCC4=CC(=O)C=C[C@]4(C)[C@H]3[C@@H](O)C[C@@]12C (stereo not given in full): 90.7% (inactive)
- Cc1cc(C)c(Nc2ccnc(Nc3ccc(C#N)cc3)n2)c(C)c1: 86.6% (inactive)
- Cc1cccnc1Nc1cn2cc(-c3cccc(OCC(F)(F)F)n3)ccc2n1: 8.06% (active)
- CN1CCN(c2ccc(C(=O)NCc3cnc(C#N)nc3NCC(C)(C)C)cc2)CC1: 3.97% (active)
- O=c1[nH]ccc2nc(N[C@@H]3CCNC3)nc(Nc3ccc4c(c3)S(=O)(=O)CC4)c12: 104% (inactive)
- CCOc1ccc(-c2ccnc(Nc3cncc(OC)c3)n2)cc1C#N: 68.7% (inactive)
- CCCCN(CCCC)CCC(O)c1cc2c(Cl)cc(Cl)cc2c2cc(C(F)(F)F)ccc12 (stereo not given): 77.3% (inactive)
- CCNCc1cc(Nc2ccnc3cc(Cl)ccc23)ccc1O: 2.65% (active)
- CO/C=C(/C(=O)OC)c1ccccc1COc1c(C)c(-c2ccc(C)cc2C)nn1C: 10.3% (active)
- CCCCCOc1ccc(-c2ccc(-c3ccc(C(=O)N[C@H]4C[C@@H](O)[C@@H](O)NC(=O)[C@@H]5[C@@H](O)[C@@H](C)CN5C(=O)[C@H]([C@@H](C)O)NC(=O)[C@H]([C@H](O)[C@@H](O)c5ccc(O)cc5)NC(=O)[C@@H]5C[C@@H](O)CN5C(=O)[C@H]([C@@H](C)O)NC4=O)cc3)cc2)cc1: 54.2% (inactive)
- CN(C)C1CC(NC(=O)c2ccc(Nc3nccc(-c4ccc(Cl)c(C(F)(F)F)c4)n3)cc2)C1 (stereo not given): 6.2% (active)
- c1ccc(-c2ccnc(C3CCN(CC45CNCC4C5)CC3)n2)cc1 (stereo not given): 134% (inactive)
- Cc1cc(C)c2cc(C(=O)N[C@@H](C)c3ccccc3)[nH]c2c1: 69.4% (inactive)
- O=C(CCCN1CCC(O)(c2ccc(Cl)cc2)CC1)c1ccc(F)cc1: 4.14% (active)
- CCN(CC)CCNC(=O)c1ccc(NC(=O)c2cc3c(C)nn(-c4ccc(Cl)cc4)c3s2)cc1: 108% (inactive)
- Cc1c[nH]c(-c2cccc(C(=O)NC3CCC(CCN4CCc5ccc(C#N)cc5CC4)CC3)c2)n1 (stereo not given): 88.4% (inactive)
- N#Cc1ccc(C/C(=N/NC(=O)Nc2ccc(OC(F)(F)F)cc2)c2cccc(C(F)(F)F)c2)cc1: 91.3% (inactive)
- Nc1nc(C2CC2)cn1CC(O)c1ccc(Cl)cc1Cl (stereo not given): 83.2% (inactive)
- CCOc1cc([C@@H](CS(C)(=O)=O)N2C(=O)c3cccc(NC(C)=O)c3C2=O)ccc1OC: 90.4% (inactive)
- COC(=O)N[C@H](C(=O)N[C@@H](Cc1ccccc1)[C@@H](O)CN(Cc1ccc(-c2ccccn2)cc1)NC(=O)[C@@H](NC(=O)OC)C(C)(C)C)C(C)(C)C: 105% (inactive)
- CCN(CC)CCOc1ccc(C(O)(Cc2ccc(Cl)cc2)c2ccc(C)cc2)cc1 (stereo not given): 3.33% (active)
- S=C(NCc1ccc2c(c1)OCO2)N1CCN(c2ncnc3c2oc2ccccc23)CC1: 77.9% (inactive)
- Cc1cccc(Nc2nccc(-c3cccc(C#N)c3)n2)c1: 49.1% (inactive)
- O[C@@H](CNC[C@H](O)[C@H]1CCc2cc(F)ccc2O1)[C@@H]1CCc2cc(F)ccc2O1: 3.82% (active)
- CC(C)Nc1cccnc1N1CCN(C(=O)c2cc3cc(NS(C)(=O)=O)ccc3[nH]2)CC1: 96.3% (inactive)
- O=C(Nc1ccc([N+](=O)[O-])cc1Cl)c1cc(Cl)ccc1O: 4.72% (active)
- CCSc1ccc2c(c1)N(CCCN1CCN(C)CC1)c1ccccc1S2: 3.76% (active)
- CCCC(CCC)C(=O)O: 79.4% (inactive)
- Clc1cccc2cnsc12: 68.5% (inactive)
- OB(O)O: 163% (inactive)
